Assay Notes: clinical
Condition: human, in vivo, Cl (clearance); SD
Measure Name: clearance

- CN[C@H]1C(=O)N[C@@H]2Cc3ccc(cc3)Oc3cc4cc(c3O[C@@H]3O[C@H](C(=O)O)[C@@H](O)[C@H](O)[C@H]3NC(=O)CCCCCCCCC(C)C)Oc3ccc(cc3Cl)[C@@H](O)[C@@H]3NC(=O)[C@H](NC(=O)[C@@H]4NC(=O)[C@@H](NC2=O)c2cc(cc(O)c2Cl)Oc2cc1ccc2O)c1ccc(O)c(c1)-c1c(O[C@H]2O[C@H](CO)[C@@H](O)[C@H](O)[C@@H]2O)cc(O)cc1[C@@H](C(=O)NCCCN(C)C)NC3=O [Dalbavancin]: 0.9 mL/min
